System: CEM cells HIV-1 protection, formazan growth assay
Assay: NCI AIDS Antiviral Assay;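 active = compounds giving half or more protection of infected cells from virus-caused growth loss, again on retest; inactive = the rest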
Tick one outcome: active, inactive

compound: N=C(N)c1ccc(OCCCOc2ccc(C(=N)N)cc2)cc1
study-system: CEM cells HIV-1 protection, formazan growth assay
label-value: inactive
//
compound: Cc1cc(=O)n2nc(SCc3ccccc3)sc2n1
study-system: CEM cells HIV-1 protection, formazan growth assay
label-value: inactive
//
compound: O=C([O-])c1ccc2c(c1)-c1nc-2nc2[n-]c(nc3nc(nc4[n-]c(n1)c1ccc(C(=O)[O-])cc41)-c1ccc(C(=O)[O-])cc1-3)c1ccc(C(=O)[O-])cc21.[Gd+3].[K+]
study-system: CEM cells HIV-1 protection, formazan growth assay
label-value: inactive
//
compound: CC(O)(/C=C/c1ccccc1)P(=O)(O)c1ccccc1 (stereo not drawn)
study-system: CEM cells HIV-1 protection, formazan growth assay
label-value: inactive
//
compound: CN1CC2=C(NC(=S)NC2c2ccc(Cl)cc2)/C(=C/c2ccc(Cl)cc2)C1 (stereo not drawn)
study-system: CEM cells HIV-1 protection, formazan growth assay
label-value: inactive

### Prompt Field: outcome | Entry: COc1cc2c3c(c1)[nH]c(=S)n3C(=O)C(C)S2 (stereo not drawn)
### Response inactive

### Prompt Try this compound too: N/N=C(/CC(O)(C(F)(F)F)C(F)(F)F)c1ccccc1
### Response inactive

### Prompt Try this compound too: CCOc1ccccc1NC(=O)C(=O)c1c(O)c2ccc(O)cc2oc1=O
### Response inactive

### Prompt Try this compound too: COc1ccc(C2c3cc4c(cc3OC(NCCO)C2C)OCO4)cc1 (stereo not drawn)
### Response inactive

### Prompt Try this compound too: CC(C)(C)OC(=O)N1N=NC2C1C1CC(OCc3ccccc3)(OCc3ccccc3)C2O1 (stereo not drawn)
### Response inactive

### Prompt Try this compound too: O=C1C2=C(c3ccccc31)C(c1ccccc1)NC(=S)N2 (stereo not drawn)
### Response inactive

### Prompt Try this compound too: CCCCCCCCCCCC(=O)c1c(O)cc(C)oc1=O
### Response inactive

### Prompt Try this compound too: O=S1CC(c2ccccc2)=C(c2ccccc2)CS1 (stereo not drawn)
### Response inactive

### Prompt Try this compound too: Cc1cn(C2CC(N=[N+]=[N-])C(COC(=O)CCCCCCCCCCOc3ccccc3)O2)c(=O)[nH]c1=O (stereo not drawn)
### Response active

### Prompt Try this compound too: O=c1c2ccccc2sc2nc(CCl)nn12
### Response inactive

### Prompt Try this compound too: COC(=O)C1(Cc2ccc3c(c2)CCC3)Cc2ccc3c(c2C1=O)CCC3 (stereo not drawn)
### Response inactive

### Prompt Try this compound too: COC(=O)Nc1cn2c(n1)sc1ccccc12
### Response inactive

### Prompt Try this compound too: C=CC[C@]12C=C(OC)[C@@H](O)[C@](OC)(C(c3cc(OC)c4c(c3)OCO4)[C@H]1C)[C@H]2OC(C)=O (stereo partly drawn)
### Response inactive

### Prompt Try this compound too: CC1C(C#N)(C#N)C(C#N)=C(N)C1(C)[N+](=O)[O-] (stereo not drawn)
### Response inactive

### Prompt Try this compound too: O=[N+]([O-])c1cccc(C2=NOC(C3CCCCC3)C2)c1 (stereo not drawn)
### Response inactive

### Prompt Try this compound too: O=C(C(c1ccccc1)c1ccccc1)N1CCN(c2ccccn2)CC1
### Response inactive

* * *

Assignment: determine reported EC50 for the given compounds.
System: CEM cells HIV-1 protection, formazan growth assay
Assay: NCI AIDS Antiviral Assay

compound: O=C(Cc1ccccc1)Nc1ccccc1Cl
study-system: CEM cells HIV-1 protection, formazan growth assay
readout-name: EC50
value-measured: > 204 µM
//
compound: N#CC(C#N)=c1ccc(=C(C#N)C#N)c2nsnc12
study-system: CEM cells HIV-1 protection, formazan growth assay
readout-name: EC50
value-measured: > 38 µM
//
compound: COC(=O)C(=O)/C=C(/O)c1c(C)[nH]c2ccccc12
study-system: CEM cells HIV-1 protection, formazan growth assay
readout-name: EC50
value-measured: > 200 µM
//
compound: CN1C(=O)c2ccccc2Cc2c(Cl)ncnc21
study-system: CEM cells HIV-1 protection, formazan growth assay
readout-name: EC50
value-measured: > 200 µM
//
compound: Cc1nc(N)c(N2CCN(CN)CC2)c(=O)[nH]1
study-system: CEM cells HIV-1 protection, formazan growth assay
readout-name: EC50
value-measured: > 200 µM

We now examine a further compound.
### Prompt Tell me the measured EC50 of C=CCCC1CCCCNC1=S (stereo unspecified) , please.
### Response > 200 µM

* * *

Tested on: CEM cells HIV-1 protection, formazan growth assay
Test: NCI AIDS Antiviral Assay
readout-name: EC50

compound: C=CCCC1CCCCC/C1=N\N(C)C (stereo unspecified)
EC50: > 200 µM

compound: Cn1c2c(O)c(O)ccc2c(=O)c2c(O)cc3c(c21)C=CC(C)(C)O3
EC50: > 200 µM

compound: Nc1ccc(S(=O)(=O)N/N=C/c2ccc3c(c2)OCO3)cc1
EC50: > 81.3 µM

compound: COc1cc2nncc(Sc3cnnc4ccccc34)c2cc1OC
EC50: > 61.7 µM

compound: Cc1ccc(S(=O)(=O)OCC2OC(OC3(CO)OC(COS(=O)(=O)c4ccc(C)cc4)C(O)C3O)C(O)C(O)C2O)cc1 (stereo unspecified)
EC50: > 200 µM

### Prompt Tell me the measured EC50 of CCOC1(OCC)CS(=O)(=O)C1c1ccccc1 (stereo unspecified) , please.
### Response > 661 µM

* * *

Tested on: CEM cells HIV-1 protection, formazan growth assay
Experiment: NCI AIDS Antiviral Assay
Conditions: measured here: growth of uninfected CEM cells
Assignment: determine reported IC50 for the given molecules.

These solved cases illustrate the format of a correct answer.
molecule: c1ccc(N2N=NC3C4CCC(C4)C32)cc1 (stereo not given)
study-system: CEM cells HIV-1 protection, formazan growth assay
IC50: > 200 µM

molecule: C[N+](C)(C)C=NCCCCCCN=C[N+](C)(C)C
study-system: CEM cells HIV-1 protection, formazan growth assay
IC50: > 200 µM

molecule: O=c1cc(-c2ccccc2)oc2cc(OCCSCCCCCCCCCCSCCOc3ccc4c(=O)cc(-c5ccccc5)oc4c3)ccc12
study-system: CEM cells HIV-1 protection, formazan growth assay
IC50: > 1.95 µM

molecule: NC(=O)NCCCC(NC(=O)OCCCCn1ccc(=O)[nH]c1=O)C(=O)O (stereo not given)
study-system: CEM cells HIV-1 protection, formazan growth assay
IC50: > 200 µM

We now examine a further molecule.
### Prompt Tell me the measured IC50 of O=C(O)C1C(c2c3ccc(=O)c(O)c-3oc3c(O)c(O)ccc23)C2(Cl)C(Cl)=C(Cl)C1(Cl)C2(Cl)Cl (stereo not given) , please.
### Response > 151 µM

* * *

System: CEM cells HIV-1 protection, formazan growth assay
Assay: NCI AIDS Antiviral Assay
Settings: measured here: growth of uninfected CEM cells
Assignment: determine reported log10(IC50) for the given molecules.
Log10 applied to IC50; unit prior to transform: µM.

molecule: CCN(CC)Cc1c(/C=C\c2cc(OC)c(OC)c(OC)c2)ccc(OC)c1O
study-system: CEM cells HIV-1 protection, formazan growth assay
log10(IC50): 0.04
--
molecule: CCCC(=O)Nc1cc(/C=C/C(=O)N2CC(CCl)c3c2cc([N+](=O)[O-])c2ccccc32)n(C)c1 (stereo unspecified)
study-system: CEM cells HIV-1 protection, formazan growth assay
log10(IC50): -0.10
--
molecule: Cc1ccc(S(=O)(=O)Nn2c(-c3ccccc3)c(C#N)c(-c3ccc([N+](=O)[O-])cc3)c(C#N)c2=O)cc1
study-system: CEM cells HIV-1 protection, formazan growth assay
log10(IC50): 1.75
--
molecule: COc1ccc2c3c([nH]c2c1)CCN(Cc1ccccc1)C3
study-system: CEM cells HIV-1 protection, formazan growth assay
log10(IC50): 1.66
--
molecule: COc1ccc(-c2cc(-c3cc(OC)c(OC)c(OC)c3)cc(-c3cc4ccccc4oc3=O)n2)cc1
study-system: CEM cells HIV-1 protection, formazan growth assay
log10(IC50): 2.19
--
molecule: O=S(=O)(SC1=NCCN1)c1ccccc1
study-system: CEM cells HIV-1 protection, formazan growth assay
log10(IC50): 2.48
--
molecule: CCOC(=O)c1c(-c2ccc(OC)cc2)c(C#N)c(=S)n(C2OC(COC(C)=O)C(OC(C)=O)C(OC(C)=O)C2OC(C)=O)c1-c1ccccc1 (stereo unspecified)
study-system: CEM cells HIV-1 protection, formazan growth assay
log10(IC50): 1.41
--
molecule: COc1ccc(CCNC(=O)CCCCCO)cc1OC
study-system: CEM cells HIV-1 protection, formazan growth assay
log10(IC50): 2.29

# batch: return log10(IC50) for each of the 4 molecules below
1. NCCCOc1ccc(-c2c3nc(cc4ccc([nH]4)c(-c4ccc(OCCCN)cc4)c4nc(cc5ccc2[nH]5)C=C4)C=C3)cc1
2. COc1cc2c(cc1OC)C(=O)c1nccc3ccc(OC)c(c13)O2
3. CCOC(=O)c1c(C)c2c(n1C)CCc1cn[nH]c1-2
4. CN1c2ccccc2N(C(=O)c2ccccc2)C(CC(=O)O)c2cccn21 (stereo unspecified)

### Response
1: 0.52; 2: 1.64; 3: 2.10; 4: 2.46

# batch: return log10(IC50) for each of the 2 molecules below
1. CC(=O)OCCc1cccnc1/C=N/O
2. CC(=O)c1ccc2c(c1)CC1(C2)Cc2cc3c(cc2C1)C(=O)CC3 (stereo unspecified)

### Response
1. 2.31
2. -0.63

# batch: return log10(IC50) for each of the 3 molecules below
1. O=[N+]([O-])c1cccc2nc3ccccc3c(NCCCCCNc3c4ccccc4nc4cccc([N+](=O)[O-])c34)c12
2. COC(=O)c1cc2c(c(C(=O)OC)c1O)C(=O)C=CC2=O
3. O=C1Nc2ccc(Br)cc2/C1=c1/sc2nc3ccccc3n2c1=O

### Response
1. -1.08
2. 0.82
3. 1.63
